For each of the variants below, state its polymerase ribozyme fitness (log ratio).
B1: TPR 5TU (parent)
chain: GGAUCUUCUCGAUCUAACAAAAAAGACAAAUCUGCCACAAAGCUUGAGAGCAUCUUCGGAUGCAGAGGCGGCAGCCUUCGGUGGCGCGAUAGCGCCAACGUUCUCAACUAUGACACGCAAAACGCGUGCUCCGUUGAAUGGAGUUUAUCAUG

- Variants of: B1
- Protocol Details: polymerase ribozyme fitness, log enrichment relative to wild type (log ratio); higher = more active; in vitro selection for triplet polymerase activity
Variants at the floor of the assay were thinned out.
Answers are plain numbers.

Below, each entry is followed by its recorded polymerase ribozyme fitness (log ratio) result.
# Alteration, polymerase ribozyme fitness (log ratio)
rows = [
    ("C14A U15C A19C A20C U45C G86U", -4.11),
    ("G81C G140C", -3.7),
    ("G11C C87U", -2.7),
    ("G48A C87U", -0.447),
    ("U13A G62A A142G", -2.22),
    ("A21U A113U A137G U144A", -3.99),
]

Okay, here is my list. What is polymerase ribozyme fitness (log ratio) for each of these?
1. U45G C54U A119U U146G
2. A22U G50U C96G U145G
3. C54A G92A G126U
4. G86A C116G A150C
5. A22G C85U
6. C35U C99G A119C G141U
7. U31A C54A G84A C96U C132U

-2.19
-0.544
-3.3
-3.93
-0.836
-1.83
-3.31
